- PROCEDURE_DETAILS: binders of probe aFGF10 on microarray, primary screen, stem cell growth factor project, biochemical, small-molecule microarray, fluorescence 635/667 (AID 1071);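 also: score merges 667 nm spot intensity and signal to noise from triplicate slides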
- MEASUREMENT_CONTEXT: higher = more signal
Rule: yes for composite z-score not less than 0.3, no for anything less.

The examples below pair each entry with its known result.
INSERT INTO measurements (molecule, class_name) VALUES
  ('O=C1C[C@@](C(=O)NC2CC2)(c2ccc([N+](=O)[O-])cc2)[C@@H](c2ccc(CO)cc2)N1CC12CC3CC(CC(C3)C1)C2', 'no'),
  ('COC(=O)c1c(CC[C@@H](CO)NC(=O)N[C@@H](Cc2ccccc2)Cn2cc(C3(O)CCCCC3)nn2)oc(C(C)=O)c1C(=O)OC', 'yes'),
  ('CC(C)CNC(=O)[C@@]1(c2ccc([N+](=O)[O-])cc2)CC(=O)N(CC23CC4CC(CC(C4)C2)C3)[C@@H]1c1ccc(CO)cc1', 'yes'),
  ('O=C1c2ccccc2[C@@]2(Cc3ccccc3N(Cc3ccccc3)C2=O)[C@H](c2ccc(CO)cc2)N1C1CCCCC1', 'no');

Please tell me: is the molecule O=C1C2C=CC(C(O)c3cccs3)N(Nc3ccccc3F)C2C(=O)N1c1ccccc1 (stereo not drawn) at or over 0.3 in terms of composite z-score? yes

Could you tell me if the measured composite z-score of CCOC(=O)C[C@H]1[C@H](OC(=O)Cc2ccc3c(c2)OCO3)[C@@H](NC(=O)c2ccc(-c3ccccc3)cc2)c2cc(OCCCO)ccc2N1C(=O)c1ccccc1 reaches 0.3 or more? yes

Kindly determine if composite z-score recorded for CN1C(=O)C2C=CC(C(O)c3ccccn3)N(Nc3ccccc3)C2C1=O (stereo not drawn) is above or exactly 0.3. yes

====

- SYSTEM_NAME: Luciferin 4-monooxygenase (Photinus pyralis)
- PROCEDURE_DETAILS: firefly luciferase enzyme inhibitors, primary screen, biochemical, luminescence, purified enzyme, 2006 set (AID 1141);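 also: cell-free assay with purified firefly luciferase at 100 ng per well in PBS; test concentration not given here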
- MEASUREMENT_CONTEXT: SteadyGlo luminescence, 30 min, higher = more signal, called active from +8 up or from −8 down
Could you please classify the records by z-score using these ranges: band A (below -1), band B (-1 to below -0.7), band C (-0.7 or more)

Example entries begin here.
INSERT INTO results (molecule, class_name) VALUES
  ('CCCN1C(=O)[C@@]2(CCC(=O)OC(C)(C)C)N=C(c3ccc(OCCCO)cc3)O[C@H]2c2ccccc21', 'band A'),
  ('CCOC(=O)C1=CC[C@@H](c2ccccc2Cl)N(S(=O)(=O)c2ccc(C)cc2)C1', 'band C'),
  ('CN1C(=O)C2C=CC(C(O)c3ccccn3)N(Nc3ccccc3)C2C1=O (centres undefined)', 'band A'),
  ('[N-]=[N+]=NCc1ccccc1[C@H]1OC(c2ccc(OCCCO)cc2)=N[C@@]1(CCS(=O)(=O)c1ccccc1)C(=O)N1CCOCC1', 'band A');

Hi there! Could you help me figure out the category for CCOC(=O)C[C@H]1[C@H](OC(=O)c2ccccc2-c2ccccc2)[C@@H](NC(=O)Cc2ccc(OC)cc2)c2cc(OCCCO)ccc2N1C(=O)c1ccccc1 please? band C

Given COCC(=C=CC[C@H](O)c1ccc(OCCO)cc1)C[C@H](O)c1cc(Cl)cc(Cl)c1O , name the class its z-score places it in. band B

Lab note: sort CS(=O)(=O)CCOC(=O)C1=CC(CCCO)=CC(c2cccs2)N(Cc2cc3c(cc2Br)OCO3)C=C1C(=O)OCCS(C)(=O)=O (centres undefined) into the matching z-score band. band A

Quick check: band for COc1cc(CO)ccc1OC(C)=O band B
